test: human hepatoma cell viability loss – ATP luminescence, cytotoxicity control for P. falciparum antimalarial project, primary screen (AID 2303); details: HepG2 viability, 24-48 h, at 10 µM, stronger effect = higher value;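 also: 0% = DMSO wells and 100% = digitonin-killed cells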
Hi there, I'd appreciate the recorded inhibition for every entry that follows.
Express your answer in %, writing the number without its unit.

Lab note: COc1ccc2cc(C=NNc3nc4ccccc4[nH]3)c(Cl)nc2c1 gave inhibition of 2

Lab note: O=S(=O)(Nc1cccc(CCN2CCCCC2CCN2CCCC2)c1)c1ccc(-c2ccccc2)cc1 (stereo not drawn) gave inhibition of 31

Lab note: Cc1cc(C(F)(F)F)n2nc(C3CCN(Cc4cc(C)c(O)c(C)c4)C3)cc2n1 (stereo not drawn) gave inhibition of 34

Lab note: CCN(CC)CCN(Cc1ccc(-c2ccc(C(F)(F)F)cc2)cc1)C(=O)Cn1c(CCc2cccc(F)c2F)cc(=O)cc1-c1ccccc1 gave inhibition of 33

Lab note: CCCc1cc(NC2CCN(C)CC2)nc(Nc2cccc(OC)c2)n1 gave inhibition of 31

Lab note: CCN(CC)C(=O)C1CCN(C(C(=O)N2CCN(CC(=O)N3CCCC3)CC2)c2cc3ccccc3o2)CC1 (stereo not drawn) gave inhibition of -11

Lab note: O=C(C=Cc1ccc(Cl)c(Cl)c1)NC1CCN(CCc2ccccc2)CC1 gave inhibition of 6

Lab note: OCCN1CCN(C(=S)Nc2ccccc2)CC1 gave inhibition of 6

Lab note: CC(C)(C)c1ccc(S(=O)(=O)Nc2ccccc2N2CCOCC2)cc1 gave inhibition of 11

Lab note: Oc1ccc(CCNc2nc(N/N=C/c3ccc(Cl)cc3)nc(N3CCNCC3)n2)cc1 gave inhibition of 14

Lab note: CC(C)C[C@H](NC(=O)c1cc2ccccc2s1)C(=O)N[C@H]1CCN(Cc2ccc(OCCN3CCNCC3)c3ccccc23)C1 gave inhibition of 43

Lab note: NC(N)=Nc1ccc(OCCCCCOc2ccc(N=C(N)N)cc2Br)c(Br)c1 gave inhibition of 27

Lab note: CC(=O)N(Cc1ccc(CC(C)NCCc2cccc(Cl)c2)cc1)Cc1ccc(CC(C)NCCc2cccc(Cl)c2)cc1 (stereo not drawn) gave inhibition of 98

Lab note: O=C(Nc1cccc(CN2CCCN(Cc3cccc(O)c3)CC2)c1)c1ccc(-c2ccccc2)cc1 gave inhibition of 28

Lab note: CCc1ccnc2c(N3CCCC3=O)cc(C(=O)N[C@@H](Cc3ccccc3)[C@H](O)CNC3CCOCC3)cc12 gave inhibition of 2

Lab note: O=C(N[C@@H](Cc1ccccc1)C(=O)NC1CCCCC1)c1ccc(O)c(-c2cccc(C(F)(F)F)c2)c1 gave inhibition of 11

Lab note: c1cc(-c2ccc(CNCCCn3ccnc3)cc2)cc(-c2nc3ccccc3[nH]2)c1 gave inhibition of 17

Lab note: Nc1c(Cl)cc(C(O)CNCCCCCCCCCc2ccccn2)cc1Cl (stereo not drawn) gave inhibition of 9

Lab note: CCCCCOc1ccc(NC2=CC(=O)C(=O)c3ccccc32)cc1 gave inhibition of 10

Lab note: CC(C)N1CCC(N(Cc2ccc(-c3ccc(C(F)(F)F)cc3)cc2)C(=O)Cn2c(CCc3cccc(F)c3F)nc(=O)c3cccnc32)CC1 gave inhibition of 100

Lab note: CCCC(=O)Nc1ccc(OCCN(Cc2ccccc2OC(F)(F)F)c2ccc(C(F)(F)F)c(C#N)c2)cc1 gave inhibition of -11

Lab note: COc1ccc2nccc([C@@H](O)CN3CCC(NCc4ccc5nc[nH]c(=O)c5c4)CC3)c2c1 gave inhibition of 12

Lab note: CCOc1ccc2nc(C)cc(NN=Cc3ccccc3[N+](=O)[O-])c2c1 gave inhibition of 91

Lab note: Cc1onc(-c2c(Cl)cccc2Cl)c1C(=O)N1CCc2cc3nccc(N4CCN5CCC[C@H]5C4)c3cc21 gave inhibition of 3

Lab note: CC(C)CNCc1cccc(-c2ccc(CNc3ccc4ncccc4c3)cc2)c1 gave inhibition of 13

Lab note: Cc1ccc(Cl)cc1N1CCN(CCCNC(=O)C2CCN(c3nc4ccccc4[nH]3)CC2)CC1 gave inhibition of 41

Lab note: NC(=O)c1ccccc1OCC(=O)Nc1cccc(-c2ccc(-c3nc4ccccc4[nH]3)cc2)c1 gave inhibition of 66

Lab note: O=C(/C=C/C=C/c1ccccc1)NCCCCCN1CCC(c2c[nH]c3ccccc23)CC1 gave inhibition of 28

Lab note: CN1CCN(c2ccc(-c3cccc(NC(=O)c4ccc5ccccc5c4)c3)nn2)CC1 gave inhibition of 17

Lab note: O=C(Nc1cccc(CN2CCCN(Cc3ccc(F)cc3)CC2)c1)c1cc2ccccc2s1 gave inhibition of 29

Lab note: COc1cccc(CN2CCC(C(=O)Nc3ccc(-c4nc5ccccc5[nH]4)cc3)CC2)c1 gave inhibition of 9

Lab note: Cc1cc(F)ccc1Nc1nc(N(C)c2ccccc2)c2cc(OCCN(C)C)ccc2n1 gave inhibition of 37

Lab note: c1ccc(CN2CCc3cc4nccc(N5CCNCC5)c4cc32)cc1 gave inhibition of 9

Lab note: COc1ccc(S(=O)(=O)Nc2cc(Br)cc3c2OCCC3)cc1N1CCN(C(=O)C(Cl)(Cl)Cl)CC1 gave inhibition of 4

Lab note: Clc1ccc(-c2cc3c(NCc4ccncc4)nccc3s2)cc1 gave inhibition of 26

Lab note: C=Cc1cc(NC(=O)N2CCc3cc(OC)c(C(F)(F)F)cc32)cc(-c2cccnc2)c1 gave inhibition of 7

Lab note: Cc1cccc2[nH]c(-c3cccc(-c4cccc(NC(=O)N[C@@H]5C[C@H]5c5ccccc5)c4)c3)nc12 gave inhibition of -4

Lab note: FC(F)(F)COc1ccc2ccccc2c1CCNCCCCNCCc1c(OCC(F)(F)F)ccc2ccccc12 gave inhibition of 99

---

Hi there, I'd appreciate the recorded growth inhibition for every entry that follows.
experiment: inhibition of 3D7 malaria parasite growth – strain 3D7 (AID 2306);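 also: 0% = DMSO wells and 100% = chloroquine plus artemisinin control wells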; details: P. falciparum 3D7 erythrocytic growth, LDH absorbance, 72 h; at 2 µM; stronger effect = higher value
Express your answer in %, writing the number without its unit.

Lab note: Cc1ccc(C(=O)N2CCc3cc4nccc(N5CCN6CCC[C@H]6C5)c4cc32)cc1 gave growth inhibition of 95

Lab note: Cc1nc2nc(N)nc(N)c2c(C)c1Cc1ccc(C(F)(F)F)cc1 gave growth inhibition of 96

Lab note: Nc1c2c(nc3ccc(C(=O)Nc4ccc(Br)cc4)cc13)CCCC2 gave growth inhibition of 102

Lab note: Cc1cc(N[C@@H](CC(C)C)C(=O)NCc2cccc(F)c2)nc(NCCc2ccc(F)cc2)n1 gave growth inhibition of 90

Lab note: CCCN(CCC)CCCN(CCCN(CCC)CCC)c1cc(C)nc(Nc2ccc3cc(Br)ccc3c2)n1 gave growth inhibition of 98

Lab note: COc1ccc2nccc([C@@H](O)CN3CCC(NCc4cc5cccc6c5n(c4=O)CCC6)CC3)c2c1 gave growth inhibition of 98

Lab note: COc1ccccc1-c1csc(C(=O)NC2CCCCN(Cc3ccc(C(C)(C)C)cc3)C2)c1 (stereo not given) gave growth inhibition of 99

Lab note: Cc1ccc2c(NN=Cc3cccc(Cl)c3)cc(C)nc2c1 gave growth inhibition of 96

Lab note: c1ccc(-c2nnc(-c3ccccn3)nc2NC2CCCCC2)cc1 gave growth inhibition of 97

Lab note: CC(C)C[C@@H](/C=N/N1CCOC1=O)NC(=O)[C@H](CC(C)C)NC(=O)c1ccc(OCCN2CCOCC2)cc1 gave growth inhibition of 92

---

assay: antimalarial activity against Dd2 strain (AID 2302);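 also: 0% = DMSO untreated growth and 100% = chloroquine plus artemisinin killed control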; settings: P. falciparum Dd2 in RBCs, LDH growth readout, 72 h; at 2 µM; stronger effect = higher value
Calls of active or inactive are those of the source.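 The calls were made as follows: active = growth inhibition above 50% at the single 2 µM test dose, taken to imply half-maximal potency below 2 µM; inactive = the rest.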
METRIC NAME: growth inhibition

Lab note: CN(C)S(=O)(=O)c1ccc(N2C(=O)[C@@H]3[C@H](C2=O)[C@@]2(c4ccccc4)C(=O)[C@]3(c3ccccc3)C(c3ccccc3)=C2c2ccccc2)cc1 gave growth inhibition of 63% (active)

Lab note: Nc1c(Cl)cc(C(O)CNCCCCCCCCCc2ccccn2)cc1Cl (stereo not given) gave growth inhibition of 83% (active)

Lab note: C=C(C)CSc1nc2c(c(=O)n1Cc1ccco1)C1(CCCCC1)Cc1ccccc1-2 gave growth inhibition of 68% (active)

Lab note: Cc1nc2nc(N)nc(N)c2c(C)c1Cc1cccs1 gave growth inhibition of 2% (inactive)

Lab note: N#Cc1cccc(C(=O)Nc2cccc(-c3cccc(CN4CCNCC4)c3)c2)c1 gave growth inhibition of 10% (inactive)

Lab note: CCN1CCC(NCc2ccc(-c3ccc(Cl)cc3)cc2)CC1 gave growth inhibition of 33% (inactive)

Lab note: COc1cccc(C(O)CNc2ccnc(Nc3ccc(Cl)cc3)n2)c1 (stereo not given) gave growth inhibition of 46% (inactive)

Lab note: C=CC(=O)Nc1ccc(Cl)cc1C(O)c1ccccc1 (stereo not given) gave growth inhibition of 5% (inactive)

Lab note: C=C(F)c1sc(CNCCCNc2nc3ccccc3[nH]2)c(C)c1Br gave growth inhibition of 23% (inactive)

Lab note: CCCOc1ccc(OCCCON2C(N)=NC(N)=NC2(C)C)cc1 gave growth inhibition of 94% (active)

Lab note: NC(=O)c1cccc(Nc2nccc(Nc3ccc(Oc4cccc5ccccc45)cc3)n2)c1 gave growth inhibition of 22% (inactive)

Lab note: O=C(C=Cc1ccc(Cl)c(Cl)c1)NCCCCCN1CCC(CCCNC(=O)c2sc3ccccc3c2Cl)CC1 gave growth inhibition of 40% (inactive)

Lab note: COc1ccc2ncc(OC)c(CCN3CC[C@@H](NCc4ccc5c(n4)NC(=O)CS5)[C@H](O)C3)c2n1 gave growth inhibition of 99% (active)

Lab note: O=C(CSc1ccccn1)Nc1c(F)cccc1F gave growth inhibition of -5% (inactive)

Lab note: NC1=NC(c2ccccc2)N(OCc2ccccc2)C(N)=N1 (stereo not given) gave growth inhibition of 21% (inactive)

Lab note: COc1cccc(-c2ccc3c(-c4cccc(S(C)(=O)=O)c4)cnc(N)c3c2)c1 gave growth inhibition of 21% (inactive)

Lab note: CCCc1c(Cl)cc(CNCCCNc2nc3ccncc3[nH]2)cc1Cl gave growth inhibition of -5% (inactive)

Lab note: COC(=O)c1cccc(CNCc2cccc(-c3cccc(-c4nc5ccc(F)cc5[nH]4)c3)c2)c1 gave growth inhibition of 52% (active)

Lab note: CC(C)CNCc1cccc(-c2ccc(CNc3ccc4ncccc4c3)cc2)c1 gave growth inhibition of 32% (inactive)

Lab note: Cc1[nH]c2ccc(NS(C)(=O)=O)cc2c1C1CCN(CCC2CCN(C(=O)/C=C/c3ccc(Cl)c(Cl)c3)CC2)CC1 gave growth inhibition of 94% (active)

Lab note: CCCC(C(=O)OCCNC)(c1ccccc1)c1ccccc1 gave growth inhibition of 96% (active)

Lab note: CS(=O)(=O)c1ccc(-c2cnc(N)c(-c3cccc(CO)c3)c2)cc1 gave growth inhibition of 51% (active)

Lab note: Cc1cc(F)ccc1Nc1nc(N(C)c2ccccc2)c2cc(OCCCN(C)C)ccc2n1 gave growth inhibition of 49% (inactive)

Lab note: COc1cc(C2Nc3ccc4ccccc4c3C3=C2C(=O)CC(C)(C)C3)ccc1Oc1ccc([N+](=O)[O-])cc1C#N (stereo not given) gave growth inhibition of 94% (active)

Lab note: CCN1CCN(C(=O)NC(C(=O)N2CCCC(COc3ccc(Cc4ccccc4)cc3)C2)c2cccs2)C(=O)C1=O (stereo not given) gave growth inhibition of 87% (active)

Lab note: c1ccc(COc2ccccc2COc2ccccc2-c2ccc3cccnc3n2)cc1 gave growth inhibition of 95% (active)

Lab note: O=C(NCCN1CCCC1)c1cccc(-c2ccc(-c3nc4ccccc4[nH]3)s2)c1 gave growth inhibition of 13% (inactive)

Lab note: CSc1nccc(-c2ccc3ccnc(N)c3c2)n1 gave growth inhibition of 98% (active)

Lab note: COc1cc2nc(N3CCN(C(=O)c4ccco4)CC3)nc(NCc3ccccc3)c2cc1OC gave growth inhibition of 99% (active)

Lab note: O=C(NC1CCN(Cc2ccccc2)CC1)c1ccc2c(=O)n(Cc3ccc(Cl)cc3)c(=S)[nH]c2c1 gave growth inhibition of 100% (active)

Lab note: CCN(CC)CCOc1ccc(NC(=O)c2oc3ccccc3c2C=Cc2ccccc2)cc1 gave growth inhibition of 54% (active)

Lab note: CCCC(CNCc1ccccc1)CNc1cc(=O)c2ccccc2[nH]1 (stereo not given) gave growth inhibition of 21% (inactive)

Lab note: CCN(CCCN1CCCCC1)c1cc(C)nc(Nc2ccc(C)c(Br)c2)n1 gave growth inhibition of 98% (active)

Lab note: Cc1nnc2c(NC(=O)NC(C)C)cc3cc(-c4ccc(CN5CCCCC5)cc4)ccc3n12 gave growth inhibition of 8% (inactive)

Lab note: CCN(CC)CCCC(C)Nc1ccnc2ccc(OC)cc12 (stereo not given) gave growth inhibition of -3% (inactive)

Lab note: C[C@H]1CN(Cc2cccc(-c3cc(CNC(=O)c4cccc(CN5CCN(CCOc6ccccc6)CC5)c4)ccc3F)c2)CCN1 gave growth inhibition of 88% (active)

Lab note: NC(=O)C1CCN(Cc2cccc(-c3cccc(-c4nc5ccc(C(F)(F)F)cc5[nH]4)c3)c2)CC1 gave growth inhibition of 100% (active)

Lab note: CN(C)CCN(C)Cc1ccc(-c2cccc(-c3nc4ccccc4[nH]3)c2)cc1 gave growth inhibition of 78% (active)

Lab note: Cc1ccc(C(NC(=O)c2ccccc2)c2ccc3cccnc3c2O)cc1 (stereo not given) gave growth inhibition of 72% (active)

Lab note: O=S(=O)(NCCN1CCCC1)c1ccc(-c2ccc(CNCc3ccc(F)cc3)cc2)cc1F gave growth inhibition of 21% (inactive)
